- SYSTEM: T1, SUMO1 (UniProt P63165 1-97)
- T1 construct: SUMO1, expressed from SUMO1-pQE80L; Uniformly 15N-labelled for NMR; Plasmid obtained from Rama Koti, TIFR, Mumbai; also called 15N-SUMO1; 15N-wt-SUMO1; source: E. coli BL21 (DE3), 15NH4Cl-M9 medium, purified (Ni-NTA, Superdex 75)
- T1 sequence (P63165 1-97): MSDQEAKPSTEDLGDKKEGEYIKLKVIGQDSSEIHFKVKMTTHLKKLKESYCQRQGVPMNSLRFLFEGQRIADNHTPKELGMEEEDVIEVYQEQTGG
- TEST_DESCRIPTION: NMR titration; IE1-SIM peptides titrated into ~0.3 mM 15N-SUMO1 or 15N-SUMO2 up to 1:4 (SUMO:SIM); 15N-HSQC, 298K, 800 MHz; PBS, 5 mM DTT, 10% D2O; CSPs fit to a 1:1 model
- CONDITION_DESCRIPTION: both partners purified
Measured Kd values are reported for all entries that follow.
I only need the number, in µM, no unit after it.

PATIPLSSVIVAENSDQEE (Human Cytomegalovirus Immediate-Early protein 1 (IE1), peptide around SIM2 (VIVA, aa 416-419); source: synthetic peptide (Lifetein)) [IE1-SIM2 peptide] | 136

Shifting focus to the binder that follows.
Prompt: Item RPLITKPEVISVMKRRIEE (Human Cytomegalovirus Immediate-Early protein 1 (IE1), peptide around SIM1 (VISV, aa 335-338); source: synthetic peptide (Lifetein)) [IE1-SIM1 peptide] has what recorded Kd?
Response: 134
